tested on: SQ20B; assay: Inhibition of human SQ20B cells; format: functional, cell-based
Reported values of IC50 for individual entries
Numeric answer plus unit only.

CC(/C=C/C(=O)NO)=C\[C@@H](C)C(=O)c1ccc(N(C)C)cc1; 0.2 µM

Entry "CN(C)c1ccc(NC(=O)NCCCCCCC(=O)NO)cc1" has what IC50? 10 µM

Request: "CN(C)c1ccc(CNC(=O)NCCCCCC(=O)NO)cc1" 25 µM

----------
Target: Protein deacetylase HDAC6 (Homo sapiens)
Sequence (Q9UBN7 whole entry): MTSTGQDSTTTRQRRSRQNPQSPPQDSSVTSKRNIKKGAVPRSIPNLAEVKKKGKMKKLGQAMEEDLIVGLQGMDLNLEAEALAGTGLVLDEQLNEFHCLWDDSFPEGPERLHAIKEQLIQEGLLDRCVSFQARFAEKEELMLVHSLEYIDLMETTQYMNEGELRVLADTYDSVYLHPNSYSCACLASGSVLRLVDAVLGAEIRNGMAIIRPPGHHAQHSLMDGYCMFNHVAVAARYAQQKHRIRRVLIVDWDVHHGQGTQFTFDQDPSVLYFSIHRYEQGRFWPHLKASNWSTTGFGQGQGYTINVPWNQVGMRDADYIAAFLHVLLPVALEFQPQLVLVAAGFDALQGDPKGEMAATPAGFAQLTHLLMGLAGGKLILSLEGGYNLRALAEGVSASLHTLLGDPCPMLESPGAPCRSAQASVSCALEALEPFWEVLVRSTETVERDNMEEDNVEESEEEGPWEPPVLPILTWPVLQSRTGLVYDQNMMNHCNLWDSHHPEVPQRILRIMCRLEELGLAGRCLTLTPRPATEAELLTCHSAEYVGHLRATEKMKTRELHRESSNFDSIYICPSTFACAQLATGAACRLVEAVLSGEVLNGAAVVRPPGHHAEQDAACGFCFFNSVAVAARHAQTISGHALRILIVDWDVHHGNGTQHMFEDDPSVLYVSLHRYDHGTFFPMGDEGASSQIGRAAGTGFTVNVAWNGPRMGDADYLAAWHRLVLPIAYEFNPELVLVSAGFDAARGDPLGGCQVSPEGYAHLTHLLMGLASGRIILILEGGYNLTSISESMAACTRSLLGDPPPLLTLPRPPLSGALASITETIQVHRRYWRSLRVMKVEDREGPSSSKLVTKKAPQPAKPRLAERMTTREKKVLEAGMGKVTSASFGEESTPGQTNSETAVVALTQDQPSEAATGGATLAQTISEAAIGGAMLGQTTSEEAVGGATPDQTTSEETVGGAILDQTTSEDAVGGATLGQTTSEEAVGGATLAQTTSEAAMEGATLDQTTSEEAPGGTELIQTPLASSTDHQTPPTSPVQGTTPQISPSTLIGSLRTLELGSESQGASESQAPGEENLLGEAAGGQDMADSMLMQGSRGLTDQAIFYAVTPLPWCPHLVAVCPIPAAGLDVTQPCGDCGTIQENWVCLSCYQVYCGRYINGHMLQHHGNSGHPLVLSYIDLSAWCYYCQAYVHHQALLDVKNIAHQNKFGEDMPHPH
Quantity: pIC50
pIC50 here is simply -log10 of the concentration when that concentration is written in mol/L.

CC(C)[C@H]1NC(=O)[C@@H](C)[C@@H](C/C=C\CCC(=O)O)NC(=O)[C@@H](Cc2ccccc2)NC(=O)[C@@H](C)NC1=O [AZUMAMIDE E]; 4.92

Any idea what pIC50 was measured for CC(=O)CCCCC[C@H](NC1CCCCN1C)C(=O)Nc1nc(-c2ccccc2)cs1 (some centres not stated) ? 7.89

----------
assay: Inhibition of human CCD1059SK cells; assay type: functional, cell-based
Could you please mark T for values of IC50 below 40 µM and F for values at or above it?

Please indicate whether the reported IC50 of "Cn1cc(CN(CCO)Cc2ccc(C(=O)Nc3ccccc3N)cc2)c2ccccc21" is strictly below 40 µM. T

----------
molecular target: Histone deacetylase; test: Inhibition of HDAC from human K562 cells; format: cell-based
# note: exactly 9 nM is not below, so it is rule not met; use rule met for IC50 strictly under it

Worked cases, answers included:
O=C(CCCCCCc1nc(-c2ccc3ccccc3c2)cs1)NO; rule met
CNC(=O)C(=O)CCCCCCC(=O)Nc1cccc(-c2ccccc2)c1; rule met
O=C(CCCCCCc1cnc(-c2ccccc2)o1)NO; rule not met
COc1cccc(OC)c1-c1csc(CCCCCCC(=O)NO)n1; rule met
CN(C)C(=O)C(=O)CCCCCCOc1ccc(-c2ccccc2)cc1; rule not met
COc1ccc(-c2csc(CCCCCCC(=O)NO)n2)cc1; rule met
O=C(CCCCCCc1nc(-c2cccc(Br)c2)cs1)NO; rule met
O=C(CCCCCCc1cnc(-c2ccc(F)cc2)o1)NO; rule not met
O=C(CCCCCCc1ncc(-c2ccc(-c3ccc(Cl)cc3)cc2)o1)NO; rule met
O=C(CCCCCCc1nc(-c2ccc(C(F)(F)F)cc2)cs1)NO; rule not met

Here's the next entry for you.
Just wondering, is IC50 of "COC(=O)C(=O)CCCCCCOc1ccc(-c2ccccc2)cc1" below 9 nM? rule not met

----------
Reported IC50 values, UniProt:Q9BY41.

Some molecules with known IC50 results, for comparison:
CC(=O)SCC(=O)NCCCCCC(=O)Nc1ccccc1; > 40 µM
CC(=O)SCC(=O)CCCCCCC(=O)Nc1ccccc1; 0.19 µM
O=C(CO)NCCCCCC(=O)Nc1ccccc1; > 40 µM
O=C(CS)NCCCCCC(=O)Nc1ccccc1; 3.89 µM
O=C(CCCCCNC(=S)CS)Nc1ccccc1; > 40 µM

Next molecule, please.
Consider the molecule "CSCC(=O)CCCCCCC(=O)Nc1ccccc1" and give its measured IC50. > 40 µM

----------
molecular target: Histone deacetylase; test: Inhibition of HDAC in human CEM cells; assay type: cell-based; conditions: ccrf-cem; read-out: IC50
Quantity: IC50
Please answer using a numeric value trailed by its unit.

O=C(CCCCCSc1ccccc1)NO; 9.4 µM
O=C(CCCCCSc1ccc(NS(=O)(=O)c2ccc(Cl)cc2)cc1)NO; 9.4 µM
CN(C)c1ccc([S+]([O-])CCCCCC(=O)NO)cc1 (stereo not given); 2.24 µM
O=C(CCCCCS(=O)(=O)c1ccccc1)NO; 15.5 µM

Now look at this entry.
Consider the molecule shown here: O=C(CCCCCC[S+]([O-])c1ccc(Cl)cc1)NO (stereo not given) What is its recorded IC50? 1.6 µM

----------
assay: Bioavailability in […] dosed rat; format: ADME, organism-based; settings: in vivo
Quantity: bioavailability

Could you tell me which bioavailability is on file for "COc1ccc(NCc2ccc(C(=O)Nc3ccccc3N)cc2)cc1OC" ? 20%

----------
target: UniProt:Q13547
Sequence (Q13547 whole entry): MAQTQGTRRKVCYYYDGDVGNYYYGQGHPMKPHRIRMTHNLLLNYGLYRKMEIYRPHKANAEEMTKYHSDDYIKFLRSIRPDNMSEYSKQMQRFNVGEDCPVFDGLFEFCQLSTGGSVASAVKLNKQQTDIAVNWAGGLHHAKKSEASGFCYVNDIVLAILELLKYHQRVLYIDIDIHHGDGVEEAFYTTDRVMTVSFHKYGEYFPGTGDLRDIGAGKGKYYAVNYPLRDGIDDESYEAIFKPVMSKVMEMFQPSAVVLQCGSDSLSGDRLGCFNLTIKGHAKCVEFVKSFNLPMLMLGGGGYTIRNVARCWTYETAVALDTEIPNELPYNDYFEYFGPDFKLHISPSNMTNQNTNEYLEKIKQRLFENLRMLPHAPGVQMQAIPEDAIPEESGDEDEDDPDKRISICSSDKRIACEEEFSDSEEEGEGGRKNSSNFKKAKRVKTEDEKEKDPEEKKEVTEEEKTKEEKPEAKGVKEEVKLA
pIC50: −log10 of the molar value.
Respond with Criterion met for pIC50 values of 6 and above, Criterion not met for values below.

Nc1ccccc1NC(=O)c1ccc(Cn2c(=O)[nH]c3ccccc3c2=O)cc1; Criterion not met
COc1ccc(-c2ccnc(NCc3ccc(C(=O)Nc4ccccc4N)cc3)n2)cn1; Criterion met
O=C(/C=C/c1ccc(CN(CCO)CCc2cc3ccccc3[nH]2)cc1)NO; Criterion met

Next up:
Form field: pIC50 at least 6? Entry: CC(=O)CCCCC[C@H](NC1CCCCN1C)C(=O)Nc1nc(-c2ccccc2)cs1 (some centres not stated) Criterion met

----------
target: Histone deacetylase 2 (Homo sapiens)
Sequence (Q92769 whole entry): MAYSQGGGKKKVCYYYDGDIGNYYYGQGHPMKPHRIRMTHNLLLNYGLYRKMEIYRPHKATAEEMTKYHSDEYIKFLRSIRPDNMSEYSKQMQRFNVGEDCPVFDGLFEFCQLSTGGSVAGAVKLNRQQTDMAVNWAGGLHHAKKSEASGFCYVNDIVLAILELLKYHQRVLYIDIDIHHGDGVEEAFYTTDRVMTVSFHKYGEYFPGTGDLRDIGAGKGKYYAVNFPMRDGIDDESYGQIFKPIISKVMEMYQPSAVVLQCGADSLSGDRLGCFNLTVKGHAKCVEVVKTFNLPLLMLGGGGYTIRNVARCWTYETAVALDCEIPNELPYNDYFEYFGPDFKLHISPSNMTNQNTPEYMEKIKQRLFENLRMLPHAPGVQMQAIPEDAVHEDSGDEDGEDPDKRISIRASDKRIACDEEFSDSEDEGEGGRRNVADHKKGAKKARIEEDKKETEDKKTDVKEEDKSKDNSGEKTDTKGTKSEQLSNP
Quantity: pIC50
By convention, pIC50 is the negative base-10 log of a molar concentration.

Suppose we examine the compound CC(=O)CCCCC[C@H](NC1CCCCN1C)C(=O)Nc1nc(-c2ccccc2)cs1 (stereo partly specified) ; what pIC50 value has been reported? 6.77

----------
Target protein (sequence): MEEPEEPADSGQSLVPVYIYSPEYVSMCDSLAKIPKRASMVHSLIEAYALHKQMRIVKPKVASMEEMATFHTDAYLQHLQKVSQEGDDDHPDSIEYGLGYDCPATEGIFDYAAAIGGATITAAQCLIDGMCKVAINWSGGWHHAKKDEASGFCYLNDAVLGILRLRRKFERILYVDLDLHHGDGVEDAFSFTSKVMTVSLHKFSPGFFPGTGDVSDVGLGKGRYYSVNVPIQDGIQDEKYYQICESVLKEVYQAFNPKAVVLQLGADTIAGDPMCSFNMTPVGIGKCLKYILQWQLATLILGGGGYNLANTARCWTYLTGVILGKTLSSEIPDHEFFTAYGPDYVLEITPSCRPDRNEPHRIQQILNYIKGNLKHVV
Quantity: pIC50
On this scale, pIC50 is minus log10 of a concentration expressed in M (mol/L).

Below, 3 compounds whose answers are already recorded.
CC(=O)CCCCC[C@H](NC1CCCCN1C)C(=O)Nc1nc(-c2ccccc2)cs1 (stereo not given in full); 5.52
O=C(/C=C/c1ccc(CN(CCO)CCc2cc3ccccc3[nH]2)cc1)NO; 6.85
O=C(Cc1ccc(-c2csc(NC(=O)COc3ccccc3)n2)s1)NO; 7.42

Next up:
# query: pIC50 of entry CC(C)[C@H]1NC(=O)[C@@H](C)[C@@H](C/C=C\CCC(=O)O)NC(=O)[C@@H](Cc2ccccc2)NC(=O)[C@@H](C)NC1=O [AZUMAMIDE E] 5.43
